- Tested on: phospho-Akt in Panc10.05 (G12D)
- Assay explanation: In-Cell Western phospho-Akt, Panc10.05
- Format: cell-based
- Recorded conditions: Homo sapiens, Panc1005, 1 h; Panc10.05, one hour treatment; read-out: In-Cell Western Panc10.05 (G12D) Akt (P)
- Experimental: In-cell phosphorylation assays for Erk and Akt were performed on several of the compounds and exemplary results are shown in Table 3 below using HCC827 and A375 cell lines for wild type K-Ras and Panc1 and Panc10.05 cell lines for G12D K-Ras mutants. […] Cells are seeded in complete medium into black sided, clear-bottom 384-well microplates at 3000 cells/27 ul/well. […] Plates are imaged on the Celigo (Nexcelom) and cellular fluorescence is quantitated. […] EC50 values are calculated using Graphpad Prism.
Metric: EC50 (µM)
Please respond with the number in µM and leave the unit unwritten.

Which measured EC50 value corresponds to COc1cccc(CN2C(=O)CCc3cc(-c4csc(NC(=O)c5oc(C)nc5C)n4)ccc32)c1OC ?
15

Tell me the measured EC50 of Cc1nc(C)c(C(=O)Nc2nc(-c3ccc4c(c3)CCC(=O)N4C3CCCC3)cs2)o1 , please.
17

If you can, please state the reported EC50 value of COCCN1C(=O)CCc2cc(-c3csc(NC(=O)c4c(C)nn(C)c4C)n3)ccc21 .
5

Sample Cc1nc(CNC(=O)OC(C)(C)C)sc1C(=O)Nc1nc(-c2ccc3c(c2)CCC(=O)N3)cs1 — what was its EC50?
12

---

- System: phospho-Akt in Panc10.05 (G12D)
- Assay explanation: In-Cell Western phospho-Akt, Panc10.05
- Type: cell-based
- Recorded conditions: Homo sapiens, Panc1005, 1 h; Panc10.05, one hour treatment; read-out: In-Cell Western Panc10.05 (G12D) Akt (P)
pEC50: −log10 of the molar value.
Threshold rule: pEC50 greater than or equal to 5 is Yes; below that, No.

Recorded results for 6 compounds are shown here.
| Compound | Assigned label |
| --- | --- |
| Cc1nn(C(C)(C)C)c(C)c1C(=O)Nc1nc(-c2ccc3c(c2)CCC(=O)N3)cs1 | No |
| Cc1nc(NC(=O)Nc2ccccc2)sc1C(=O)Nc1nc(-c2ccc3c(c2)CCC(=O)N3)cs1 | No |
| CCc1nc(C)c(C(=O)Nc2nc(-c3ccc4c(c3)CCC(=O)N4CCOC)cs2)o1 | Yes |
| Cc1nn(C(C)C)c(C)c1C(=O)Nc1nc(-c2ccc3c(c2)CCC(=O)N3Cc2cccnc2)cs1 | Yes |
| Cc1nc(C2CCCCC2)oc1C(=O)Nc1nc(-c2ccc3c(c2)CCC(=O)N3Cc2cccnc2)cs1 | No |
| Cn1nc(-c2ccccc2)cc1C(=O)Nc1nc(-c2ccc3c(c2)CCC(=O)N3)cs1 | No |

Record Cc1nc(NS(C)(=O)=O)sc1C(=O)Nc1nc(-c2ccc3c(c2)CCC(=O)N3)cs1 ; criterion: pEC50 no lower than 5. Met?
No

Is the recorded value of pEC50 equal to or greater than 5 for this compound? Cc1nc(C2CCCC2)sc1C(=O)Nc1nc(-c2ccc3c(c2)CCC(=O)N3)cs1
No

For this compound, is measured pEC50 5 or higher? CCc1nc(C)c(C(=O)Nc2nc(-c3ccc4c(c3)CCC(=O)N4C(C)c3cccnc3)cs2)o1 (stereo not shown)
No

Could you tell me if the measured pEC50 of COCCN1C(=O)CCc2cc(-c3csc(NC(=O)c4c(C)nn(C(C)C)c4C)n3)ccc21 reaches 5 or more?
Yes

Determine whether this compound has pEC50 no lower than 5: Cc1nc(C2CC2)oc1C(=O)Nc1nc(-c2ccc3c(c2)CCC(=O)N3Cc2cccnc2)cs1
No

Quick check, pEC50 >= 5? CCc1nc(C)c(C(=O)Nc2nc(-c3ccc4c(c3)CCC(=O)N4Cc3ccccn3)cs2)o1
No
